Assay: Mouse pharmacokinetics
Format: in vivo, ICR mice
Settings: ICR, mouse, plasma, iv, 1 mg/kg, Mouse i.v. 1 mpk
Method: ICR mice weighing 18-22 g were randomized into groups of 9 after 3-5 days of acclimatization, and then intragastrically given the test compound solution at a dose of 10 mg/kg and intravenously injected with the test compound solution at a dose of 1 mg/kg. […]
testReadout: half-life

INSERT INTO measurements (compound, testreadout, result) VALUES
  ('N#Cc1ccc(O[C@H]2CC[C@H](NC(=O)c3ccc(N4CCC(CN5Cc6ccc7c(C8CCC(=O)NC8=O)noc7c6C5)CC4)nn3)CC2)cc1Cl (stereo partly shown)', 'half-life', '7.28 h'),
  ('N#Cc1ccc(O[C@H]2CC[C@H](NC(=O)c3ccc(N4CCC(CN5CCc6c(ccc7c(C8CCC(=O)NC8=O)noc67)C5)CC4)nn3)CC2)cc1Cl (stereo partly shown)', 'half-life', '7.4 h'),
  ('N#Cc1ccc(O[C@H]2CC[C@H](NC(=O)c3ccc(N4CCN(CC5Cc6ccc7c(C8CCC(=O)NC8=O)noc7c6C5)CC4)nn3)CC2)cc1Cl (stereo partly shown)', 'half-life', '7.58 h');

Look at this compound and give its reported half-life. N#Cc1ccc(O[C@H]2CC[C@H](NC(=O)c3cnc(N4CCC(CN5Cc6ccc7c(C8CCC(=O)NC8=O)noc7c6C5)CC4)nc3)CC2)cc1Cl (stereo partly shown) 11.5 h
